target: CYP2D6 (Homo sapiens, UniProt P10635); experiment: Inhibition of CYP2D6 (unknown origin) at 10 uM relative to control; assay type: ADME
Sequence (P10635 whole entry): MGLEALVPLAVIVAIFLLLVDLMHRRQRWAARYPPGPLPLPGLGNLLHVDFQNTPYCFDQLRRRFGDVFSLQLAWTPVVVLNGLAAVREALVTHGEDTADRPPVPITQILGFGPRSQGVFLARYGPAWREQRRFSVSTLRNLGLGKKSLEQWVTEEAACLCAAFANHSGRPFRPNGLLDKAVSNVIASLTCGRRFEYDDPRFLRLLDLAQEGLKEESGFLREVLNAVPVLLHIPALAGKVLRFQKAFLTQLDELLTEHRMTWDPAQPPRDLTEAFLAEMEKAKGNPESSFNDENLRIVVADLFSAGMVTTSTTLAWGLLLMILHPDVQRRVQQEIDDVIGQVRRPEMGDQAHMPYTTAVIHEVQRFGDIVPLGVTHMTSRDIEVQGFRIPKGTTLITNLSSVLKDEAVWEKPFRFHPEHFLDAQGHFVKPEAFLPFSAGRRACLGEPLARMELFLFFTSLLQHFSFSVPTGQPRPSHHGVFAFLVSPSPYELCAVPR
metric.name: inhibition at 10 µM

1) COc1cc(N2Cc3ccc(Sc4ccc(F)cc4)nc3C2=O)ccc1OCCN1CCCC1	< 10%

---

target: UniProt:P08684; assay: Inhibition of CYP3A4 (unknown origin) at 10 uM relative to control; format: ADME
Sequence (P08684 whole entry): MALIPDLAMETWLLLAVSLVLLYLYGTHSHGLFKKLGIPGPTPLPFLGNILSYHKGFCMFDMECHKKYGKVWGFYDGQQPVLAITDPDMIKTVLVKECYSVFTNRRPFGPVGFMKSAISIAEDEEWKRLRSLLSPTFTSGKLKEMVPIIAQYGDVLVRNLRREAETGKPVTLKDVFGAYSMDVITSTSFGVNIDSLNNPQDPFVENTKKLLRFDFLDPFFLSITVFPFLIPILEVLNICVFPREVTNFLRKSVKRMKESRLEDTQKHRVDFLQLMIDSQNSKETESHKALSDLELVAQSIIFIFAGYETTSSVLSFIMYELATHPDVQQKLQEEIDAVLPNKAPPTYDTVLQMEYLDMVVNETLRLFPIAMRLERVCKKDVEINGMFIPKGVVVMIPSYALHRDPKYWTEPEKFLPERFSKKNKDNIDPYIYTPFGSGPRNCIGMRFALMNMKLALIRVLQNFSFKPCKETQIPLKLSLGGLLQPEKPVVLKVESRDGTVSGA
metric.name: inhibition at 10 µM

1. COc1cc(N2Cc3ccc(Sc4ccc(F)cc4)nc3C2=O)ccc1OCCN1CCCC1	< 10%

---

assay: Permeability of the compound by PAMPA; type: ADME; conditions: read-out: permeability
metric.name: Papp (×10⁻⁶ cm/s)

1) COc1cc(N2Cc3ccc(Sc4ccc(F)cc4)nc3C2=O)ccc1OCCN1CCCC1	1.9

---

test: Aqueous solubility of the compound; format: physicochemical; conditions: buffer
metric.name: solubility (µg/mL)

1) COc1cc(N2Cc3ccc(Sc4ccc(F)cc4)nc3C2=O)ccc1OCCN1CCCC1	104

---

biological target: Melanin-concentrating hormone receptor 1 (Homo sapiens, UniProt Q99705); assay: Displacement of Eu-MCH from human MCHR1 expressed in CHO cell membranes by TRF assay
Sequence (Q99705 whole entry): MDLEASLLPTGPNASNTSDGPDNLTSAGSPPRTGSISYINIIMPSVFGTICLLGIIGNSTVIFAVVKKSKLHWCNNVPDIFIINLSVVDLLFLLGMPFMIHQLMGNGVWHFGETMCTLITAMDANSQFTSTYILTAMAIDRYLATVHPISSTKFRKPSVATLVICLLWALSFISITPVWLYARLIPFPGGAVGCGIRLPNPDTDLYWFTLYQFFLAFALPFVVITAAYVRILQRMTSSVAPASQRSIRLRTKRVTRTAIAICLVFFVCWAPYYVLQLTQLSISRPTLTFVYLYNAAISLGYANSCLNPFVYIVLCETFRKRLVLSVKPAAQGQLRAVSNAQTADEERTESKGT
IC50 reference
metric.name: IC50

1) COc1cc(N2Cc3ccc(-c4ccccc4F)nc3C2=O)ccc1OCCN1CCCC1	4130 nM
2) COc1cc(N2Cc3ccc(Cc4cccc(F)c4)nc3C2=O)ccc1OCCN1CCCC1	410 nM
3) COc1cc(N2Cc3ccc(Sc4ccc(F)c(Cl)c4)nc3C2=O)ccc1OCCN1CCCC1	50 nM
4) COc1cc(N2Cc3ccc(Sc4ccc(F)cc4Cl)nc3C2=O)ccc1OCCN1CCCC1	80 nM
5) COc1cc(N2Cc3ccc(-c4ccc(F)cc4)nc3C2=O)ccc1OCCN1CCCC1	3100 nM
6) COc1cc(N2Cc3ccc(Cc4ccc(F)cc4)nc3C2=O)ccc1OCCN1CCCC1	80 nM
7) COc1cc(N2Cc3ccc(Sc4ccc(C)cc4)nc3C2=O)ccc1OCCN1CCCC1	60 nM
8) COc1cc(N2Cc3ccc(Sc4ccccc4)nc3C2=O)ccc1OCCN1CCCC1	20 nM
9) COc1cc(N2Cc3ccc(-c4ccc(C#N)cc4)nc3C2=O)ccc1OCCN1CCCC1	10000 nM
10) COc1cc(N2Cc3ccc(-c4ccc(Cl)cc4)nc3C2=O)ccc1OCCN1CCCC1	440 nM
11) COc1ccc(-c2ccc3c(n2)C(=O)N(c2ccc(OCCN4CCCC4)c(OC)c2)C3)cc1	340 nM
12) COc1cc(N2Cc3ccc(Cc4ccccc4C)nc3C2=O)ccc1OCCN1CCCC1	720 nM
13) C=Cc1ccc(-c2ccc3c(n2)C(=O)N(c2ccc(OCCN4CCCC4)c(OC)c2)C3)cc1	130 nM
14) CCCCc1ccc(-c2ccc3c(n2)C(=O)N(c2ccc(OCCN4CCCC4)c(OC)c2)C3)cc1	2780 nM
15) COc1cc(N2Cc3ccc(Cc4ccccc4)nc3C2=O)ccc1OCCN1CCCC1	70 nM
16) COc1cc(N2Cc3ccc(Sc4ccc(F)cc4F)nc3C2=O)ccc1OCCN1CCCC1	60 nM
17) COc1cc(N2Cc3ccc(-c4ccc(C(C)C)cc4)nc3C2=O)ccc1OCCN1CCCC1	90 nM
18) COc1ccc(Sc2ccc3c(n2)C(=O)N(c2ccc(OCCN4CCCC4)c(OC)c2)C3)cc1	100 nM
19) COc1cc(N2Cc3ccc(-c4cc(C)ccc4C)nc3C2=O)ccc1OCCN1CCCC1	300 nM

---

experiment: Half life in rat at 10 mg/kg, po and iv; assay type: ADME, organism-based; set-up: dose 10 mg/kg, route oral; settings: in vivo
metric.name: half-life (h)

1. COc1cc(N2Cc3ccc(Sc4ccccc4)nc3C2=O)ccc1OCCN1CCCC1	2.8
2. COc1cc(N2Cc3ccc(Sc4ccc(F)cc4)nc3C2=O)ccc1OCCN1CCCC1	3.4

---

pIC50 reference
target: Melanin-concentrating hormone receptor 1 (Homo sapiens, UniProt Q99705); assay: Displacement of Eu-MCH from human MCHR1 expressed in CHO cell membranes by TRF assay
pIC50: −log10 of the molar value.
metric.name: pIC50

1. CCc1ccc(-c2ccc3c(n2)C(=O)N(c2ccc(OCCN4CCCC4)c(OC)c2)C3)cc1	7.30
2. COc1cc(N2Cc3ccc(Sc4ccc(Cl)cc4)nc3C2=O)ccc1OCCN1CCCC1	7.40
3. COc1cc(N2Cc3ccc(-c4cccc(Cl)c4)nc3C2=O)ccc1OCCN1CCCC1	5.25
4. COc1cc(N2Cc3ccc(-c4ccccc4)nc3C2=O)ccc1OCCN1CCCC1	5.00
5. COc1cc(N2Cc3ccc(-c4ccccc4C)nc3C2=O)ccc1OCCN1CCCC1	5.98
6. COc1cc(N2Cc3ccc(-c4ccc(C(C)(C)C)cc4)nc3C2=O)ccc1OCCN1CCCC1	6.49
7. COc1cc(N2Cc3ccc(Sc4ccc(F)cc4)nc3C2=O)ccc1OCCN1CCCC1	7.52
8. COc1cc(N2Cc3ccc(-c4ccc(C)c(C)c4)nc3C2=O)ccc1OCCN1CCCC1	6.74
9. COc1cc(N2Cc3ccc(Cc4ccc(C(C)(C)C)cc4)nc3C2=O)ccc1OCCN1CCCC1	5.72
10. COc1cc(N2Cc3ccc(-c4ccc(C(F)(F)F)cc4)nc3C2=O)ccc1OCCN1CCCC1	6.27
11. COc1cc(N2Cc3ccc(Cc4ccc(Cl)cc4)nc3C2=O)ccc1OCCN1CCCC1	6.92
12. COc1cc(N2Cc3ccc(-c4ccccc4OC)nc3C2=O)ccc1OCCN1CCCC1	5.15
13. COc1cc(N2Cc3ccc(Cc4ccc(C)cc4)nc3C2=O)ccc1OCCN1CCCC1	6.80
14. COc1cc(N2Cc3ccc(-c4ccc(C)cc4)nc3C2=O)ccc1OCCN1CCCC1	7.10
15. COc1cc(N2Cc3ccc(-c4cccc(C)c4C)nc3C2=O)ccc1OCCN1CCCC1	6.72
16. COc1cc(N2Cc3ccc(-c4ccccc4Cl)nc3C2=O)ccc1OCCN1CCCC1	6.29
17. CCc1ccccc1-c1ccc2c(n1)C(=O)N(c1ccc(OCCN3CCCC3)c(OC)c1)C2	5.70
18. COc1cccc(-c2ccc3c(n2)C(=O)N(c2ccc(OCCN4CCCC4)c(OC)c2)C3)c1	5.70
19. COc1cc(N2Cc3ccc(Sc4ccc(F)c(F)c4)nc3C2=O)ccc1OCCN1CCCC1	7.30
20. CCCc1ccc(-c2ccc3c(n2)C(=O)N(c2ccc(OCCN4CCCC4)c(OC)c2)C3)cc1	6.68

---

assay: Metabolic stability in human liver microsomes measured for 30 mins; format: ADME, Microsome; conditions: read-out: Stability
metric.name: remaining at 0.5 h (%)

1) COc1cc(N2Cc3ccc(Sc4ccc(F)cc4)nc3C2=O)ccc1OCCN1CCCC1	97
